target_desc: NRAS G12C (Homo sapiens (Human), UniProt P01111+P62937, G12C)
Sequence (P01111 whole entry G12C): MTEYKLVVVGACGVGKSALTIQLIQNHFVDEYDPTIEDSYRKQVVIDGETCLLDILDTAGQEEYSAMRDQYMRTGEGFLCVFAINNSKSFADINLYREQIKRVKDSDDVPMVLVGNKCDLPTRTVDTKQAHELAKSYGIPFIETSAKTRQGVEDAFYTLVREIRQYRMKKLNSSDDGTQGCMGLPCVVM
Sequence (P62937 whole entry): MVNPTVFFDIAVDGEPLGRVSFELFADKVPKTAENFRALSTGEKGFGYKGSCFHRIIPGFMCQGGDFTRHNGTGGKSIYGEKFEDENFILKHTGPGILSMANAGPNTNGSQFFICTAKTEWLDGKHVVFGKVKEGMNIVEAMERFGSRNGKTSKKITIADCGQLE
run_description: Ras-Raf (BRAF RBD) disruption / FRET / MOA assay, NRAS G12C
Assay type: biochemical
measurement_context: read-out: IC50* NRAS G12C FRET data
Each entry below lists one item and its recorded IC50 value.

compound | IC50
C=CC(=O)N1CC[C@H](C(=O)N(C)[C@H](C(=O)N[C@@H]2C(=O)N3CCC[C@H](N3)C(=O)OCC(C)(C)Cc3c(-c4cncnc4)n(CC)c4ccc(cc34)-c3cccc(c3)[C@H]2OC)C(C)C)C1 | > 10000 nM
CC#CC(=O)N1CC[C@]2(CCN([C@H](C(=O)N[C@H]3Cc4cccc(c4)-c4ccc5c(c4)c(c(-c4cccnc4[C@H](C)OC)n5CC)CC(C)(C)COC(=O)[C@@H]4CCCN(N4)C3=O)C(C)C)C2=O)C1 (atropisomer, axis not shown) | 100 to 1000 nM
C=CC(=O)N1CC[C@H](C(=O)N(C)[C@H](C(=O)N[C@H]2Cc3cc(O)cc(c3)-c3ccc4c(c3)c(c(-c3cccnc3[C@@H](OC)C3CC3)n4CC)CC(C)(C)COC(=O)[C@@H]3CCCN(N3)C2=O)C(C)C)C1 (atropisomer, axis not shown) [Example A207] | 10 to 100 nM
C=CC(=O)N1CC(C(=O)N(C)[C@H](C(=O)N[C@H]2Cc3cc(O)cc(c3)-c3ccc4c(c3)c(c(-c3cccnc3[C@H](C)OC)n4CC)CC(C)(C)COC(=O)[C@@H]3CCCN(N3)C2=O)C(C)C)C1 (atropisomer, axis not shown) | 10 to 100 nM
C=CC(=O)N(C)C[C@@H]1CCN(C(=O)N(C)[C@H](C(=O)N[C@H]2Cc3nc(cs3)-c3ccc4c(c3)c(c(-c3cccnc3[C@H](C)OC)n4CC)CC(C)(C)COC(=O)[C@@H]3CCCN(N3)C2=O)C(C)C)C1 (atropisomer, axis not shown) | 10 to 100 nM
CCn1c(-c2cccnc2[C@H](C)OC)c2c3cc(ccc31)-c1cccc(c1)C[C@H](NC(=O)[C@H](C(C)C)N(C)C(=O)[C@H]1CCN(C(=O)/C=C/CF)C1)C(=O)N1CCC[C@H](N1)C(=O)OCC(C)(C)C2 | 100 to 1000 nM
CCn1c(-c2cccnc2[C@H](C)OC)c2c3cc(ccc31)-c1csc(n1)C[C@H](NC(=O)[C@H](C(C)C)N(C)C(=O)N1CCC13CN(C(=O)/C=C/CN1CCOCC1)C3)C(=O)N1CCC[C@H](N1)C(=O)OCC(C)(C)C2 (atropisomer, axis not shown) | 100 to 1000 nM
C=CC(=O)N1CC2(C1)OCCN2C(=O)N(C)[C@H](C(=O)N[C@H]1Cc2nc(cs2)-c2ccc3c(c2)c(c(-c2cccnc2[C@H](C)OC)n3CC)CC(C)(C)COC(=O)[C@@H]2CCCN(N2)C1=O)C(C)C (atropisomer, axis not shown) | < 10 nM
